Compiled record: log10 IC50 values for UniProt P06401 across several sources.
Form field - Quantity: IC50; Unit: nM; Scale: log10

Molecule | Measured on | log10 IC50
CC(C)(CC(O)(Cc1ccc2ccccc2c1)C(=O)Nc1ccc2c(c1)COC2=O)c1ccccc1 (stereo not given) | UniProt P06401 | 1.68
COc1ccc(F)cc1C(C)(C)CC(O)(Cn1ccc(=O)c2ccccc21)C(F)(F)F (stereo not given) | UniProt P06401 | 2.68
CC[C@@H](Cc1ccc(O)cc1)NS(=O)(=O)c1c(C)cc(C)cc1C | UniProt P06401 | 3.81
CC(C)(CC(O)(C(=O)Nc1ccc2c(c1)COC2=O)C(F)(F)F)c1ccccc1 (stereo not given) | UniProt P06401 | 1.56

Proceeding to the next molecule to report its log10 IC50.
(Q) Given the molecule C=CCSCC1=CC(C)(C)Nc2ccc(-c3ccccc3OC)cc21 , what is its reported log10 IC50?
(A) 2.66

---

Listing of pIC50 toward Progesterone receptor (Homo sapiens), each taken from a published source.
Biological target: Progesterone receptor (Homo sapiens)
Sequence (P06401 whole entry): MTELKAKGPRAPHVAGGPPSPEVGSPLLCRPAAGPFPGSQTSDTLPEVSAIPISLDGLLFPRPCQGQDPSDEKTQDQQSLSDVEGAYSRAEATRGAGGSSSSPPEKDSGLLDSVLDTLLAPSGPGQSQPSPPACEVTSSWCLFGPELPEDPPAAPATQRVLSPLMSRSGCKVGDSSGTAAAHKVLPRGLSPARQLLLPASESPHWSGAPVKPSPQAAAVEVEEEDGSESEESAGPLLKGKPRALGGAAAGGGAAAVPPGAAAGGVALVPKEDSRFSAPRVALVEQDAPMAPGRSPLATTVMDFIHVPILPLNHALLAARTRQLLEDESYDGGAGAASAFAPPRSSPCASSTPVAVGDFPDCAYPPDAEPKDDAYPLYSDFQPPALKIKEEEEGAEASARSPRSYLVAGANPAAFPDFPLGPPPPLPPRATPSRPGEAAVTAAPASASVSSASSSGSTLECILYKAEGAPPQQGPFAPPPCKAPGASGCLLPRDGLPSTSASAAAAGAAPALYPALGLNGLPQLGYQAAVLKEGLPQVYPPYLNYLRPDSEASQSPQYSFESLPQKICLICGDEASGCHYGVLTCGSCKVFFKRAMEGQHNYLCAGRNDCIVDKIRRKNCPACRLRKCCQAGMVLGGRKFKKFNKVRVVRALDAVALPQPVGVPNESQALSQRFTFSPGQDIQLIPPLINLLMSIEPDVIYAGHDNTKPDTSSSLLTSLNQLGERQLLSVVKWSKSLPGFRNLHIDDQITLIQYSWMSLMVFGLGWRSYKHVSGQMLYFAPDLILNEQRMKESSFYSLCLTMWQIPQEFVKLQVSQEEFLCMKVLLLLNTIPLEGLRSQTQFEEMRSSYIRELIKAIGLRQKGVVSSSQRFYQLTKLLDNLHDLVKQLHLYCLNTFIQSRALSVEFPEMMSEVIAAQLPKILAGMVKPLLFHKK
pIC50: −log10 of the molar value.

Molecule | Measured on | pIC50
Nc1ccc(-c2c(C(=O)c3ccc(OCCNS(=O)(=O)O)cc3)c3ccc(O)cc3oc2=O)cc1 | Progesterone receptor (Homo sapiens) | < 7.00

(Q) Recorded pIC50 for Cc1c(C#N)c(O)nc2c3c(sc12)NC(=O)CC3c1ccccc1Cl (stereo not given) with Progesterone receptor (Homo sapiens), please?
(A) < 5.00

(Q) Request body: readout pIC50, system Progesterone receptor (Homo sapiens), query Cc1cc(-c2ccc3c(c2)NC(=O)CO3)n(-c2ccc(F)cc2)n1 . Return the value.
(A) < 5.00

(Q) So what pIC50 did COc1ccc(F)cc1C(C)(C)CC(O)(Cc1cc2cc[n+]([O-])cc2[nH]1)C(F)(F)F (stereo not given) get with Progesterone receptor (Homo sapiens)?
(A) < 5.70

(Q) Give recorded pIC50 with Progesterone receptor (Homo sapiens) for the following molecule: COc1ccccc1C1CC(=O)Nc2sc3c(C)c(C#N)c(N)nc3c21 (stereo not given)
(A) < 5.00

(Q) Look up pIC50 with Progesterone receptor (Homo sapiens) for this molecule: Cc1cc(C)c(S(=O)(=O)NC(Cc2c[nH]c3cc(C)ccc23)C(F)(F)F)c(C)c1 (stereo not given)
(A) < 5.70

(Q) Query for Progesterone receptor (Homo sapiens): what pIC50 does the record show for COc1ccc(F)cc1C(C)(C)CC(O)(Cn1cc(C)c(=O)c(C)c1)C(F)(F)F (stereo not given) ?
(A) < 5.70

(Q) What is its pIC50 for Progesterone receptor (Homo sapiens)? Entry: CCC(Cc1cc(C)c(OC)c(C)c1)NS(=O)(=O)c1c(C)cc(C)cc1C (stereo not given)
(A) < 5.00

(Q) Give the reported pIC50 for C=CCNCC1=CC(C)(C)Nc2ccc(-c3ccccc3OC)cc21 (system: Progesterone receptor (Homo sapiens)).
(A) < 5.70

(Q) GET /values?readout=pIC50&system=Progesterone receptor (Homo sapiens)&item= COc1ccc(F)cc1C(C)(C)CC(O)(Cn1ccc(=O)c2cnccc21)C(F)(F)F (stereo not given)
(A) < 5.70

(Q) API: value(readout=pIC50, system=Progesterone receptor (Homo sapiens)) for record COc1ccc(F)cc1C(C)(C)C[C@](O)(CNC(=O)c1cnn(-c2ccc(F)cc2)c1N)C(F)(F)F
(A) < 6.00

(Q) Form: Entry = Fc1ccc(-c2c3cccc(C(F)(F)F)c3nn2Cc2ccc(F)cc2Cl)cc1 | System = Progesterone receptor (Homo sapiens) | pIC50 = ____
(A) < 6.00

(Q) Any idea what pIC50 came out for CCOc1ccccc1-c1ccc2c(cnn2-c2ccc(F)cc2)c1 on Progesterone receptor (Homo sapiens)?
(A) < 5.00

(Q) Reported pIC50 for Progesterone receptor (Homo sapiens), given CC(O)(CC(C)(C)c1ccccc1)C(=O)Nc1ccc2c(c1)COC2=O (stereo not given) ?
(A) 7.07

(Q) Under Progesterone receptor (Homo sapiens): pIC50 value of Fc1ccc(-n2ncc3cc(-c4cccc(C(F)(F)F)c4)ccc32)cc1 ?
(A) 5.80
